- testSystem: AF9 (Homo sapiens, UniProt P42568)
- Sequence (P42568 497-568): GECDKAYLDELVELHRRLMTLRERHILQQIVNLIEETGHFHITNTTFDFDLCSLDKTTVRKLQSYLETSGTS
- assay: SPR competitive binding assay of small molecules, AF9-DOT1L
- Set-up: against AF9(497-568) and ENL (489-559) proteins running different tested concentrations over CM5 chip; GB1 (pGB1-LIC vector); made in house; host or cells: Escherichia coli BL21 (DE3)
- statedConditions: SPR competitive based assay; read-out: AF9 IC50 ± SD
Please respond with reported pIC50 for every item in the list.
Please treat pIC50 as minus the base-10 logarithm of the molar concentration.

Req: Provide pIC50 value for the following compound: CCc1ccc(S(=O)(=O)N2c3ccccc3NC3=C(C(=O)CCC3)C2c2cccs2)cc1 (stereo not drawn)
Resp: 4.61

Req: Give the measured pIC50 for CCCc1ccc(S(=O)(=O)N2c3ccccc3NC3=C(C(=O)CCC3)C2c2ccco2)cc1 (stereo not drawn)
Resp: 4.33

Req: Read off the recorded pIC50 for Cc1ccc(S(=O)(=O)N2c3ccccc3NC3=C(C(=O)CC(C)(C)C3)C2c2ccco2)cc1 (stereo not drawn)
Resp: 4.33

Req: Identify measured pIC50 associated with CCc1ccc(S(=O)(=O)N2c3ccccc3NC3=C(C(=O)CCC3)C2c2ccco2)cc1 (racemic)
Resp: 4.40

Req: Indicate its recorded pIC50; the compound in question is Cc1ccc(C)c(S(=O)(=O)N2c3ccccc3NC3=C(C(=O)CCC3)C2c2cccs2)c1 (stereo not drawn)
Resp: 4.37
